Assign Human Primary Hepatocyte Editing % 100 ng/ml to each entry below.
Test system: ANGPTL3 gene
Assay: ANGPTL3 gRNA/SpCas9 editing in primary human hepatocytes (Table 3)
Assay type: cell-based
Respond with the bare value in %.

Summary for this molecule, GA117: ANGPTL3 gRNA; protospacer ACTACAAGTCAAAAATGAAG (SEQ ID NO: 115) (nucleic acid, 2'-O-methyl at 1, 2, other sugars and backbone not given here; further chemistry not fully specified) guide: ACTACAAGTCAAAAATGAAGGTTTTAGAGCTAGAAATAGCAAGTTAAAATAAGGCTAGTCCGTTATCAACTTGAAAAAGTGGCACCGAGTCGGTGCTTTT : Human Primary Hepatocyte Editing % 100 ng/ml is 7.08

Query GA128: ANGPTL3 gRNA; protospacer TGAAGAAAGGGAGTAGTTCT (SEQ ID NO: 126) (nucleic acid, 2'-O-methyl at 1, 2, other sugars, backbone and T or U not given here; further chemistry not fully specified) guide: UGAAGAAAGGGAGTAGTTCTGTTTTAGAGCTAGAAATAGCAAGTTAAAATAAGGCTAGTCCGTTATCAACTTGAAAAAGTGGCACCGAGTCGGTGCTTTT yields Human Primary Hepatocyte Editing % 100 ng/ml of 10.29
